# Protocol Description: Brain-Plasma Kp
# Type: in vivo
# Condition Parameters: rat, brain and plasma
Record form. Attribute: Kp. Fill in for each entry.

Requested field: Kp. Item: "Cn1nc(C(=O)NC2CC(F)(F)C2)c2ccc(NC(=O)c3ccc(F)cn3)cc21" 1.09

Requested field: Kp. Item: "O=C(Nc1ccc2c(OC[C@@H]3CCOC3)n[nH]c2c1)c1ccccn1" 1.44

Requested field: Kp. Item: Cn1nc(OC[C@H]2CCOC2)c2ccc(NC(=O)c3ncccc3N)cc21 [drawing 245] 2.9

Requested field: Kp. Item: Cn1nc(OCC2CCOCC2)c2ncc(NC(=O)c3ccccn3)cc21 [drawing 243] 1.51

Requested field: Kp. Item: "Cn1nc(OC[C@@H]2COCCO2)c2ccc(NC(=O)c3ccccn3)cc21" 1.47

Requested field: Kp. Item: Cn1nc(OC[C@@H]2CCOC2)c2ncc(NC(=O)c3ncccc3N)cc21 [drawing 246] 1.84

Requested field: Kp. Item: Cn1nc(OCC2CCOC2)c2ncc(NC(=O)c3ncccc3N)cc21 (centres unmarked) [drawing 242] 0.72

Requested field: Kp. Item: O=C(Nc1ccc2c(OCC3CCOC3)n[nH]c2c1)c1ccccn1 (centres unmarked) 2.09

Requested field: Kp. Item: Cn1nc(OC[C@H]2COCCO2)c2ccc(NC(=O)c3ncccc3N)cc21 [drawing 249] 1.88

Requested field: Kp. Item: Cn1nc(OC[C@@H]2COCCO2)c2ccc(NC(=O)c3ncccc3N)cc21 [drawing 248] 2.3

Requested field: Kp. Item: Cn1nc(OCC2CCOC2)c2ccc(NC(=O)c3cccc(F)n3)cc21 (centres unmarked) [drawing 251] 3.35

meta.source: patent US10508105B2
